- test-details: Selectivity index, ratio of IC50 for HEK293T cells to MIC for Candida albicans ATCC MYA-2876
- Format: toxicity
- particulars: human, read-out: Selectivity Index
endpoint-label: selectivity ratio
Lab note: write the figure by itself, no unit.

What value of selectivity ratio has been recorded for this entry: `C[C@@H]1C[C@H](C)C[C@H](C)[C@@H](O)CC(=O)O[C@H]([C@@H]2CCC[C@H]2C(=O)OCCN(C)C)C/C=C/C=C(/C#N)[C@H](O)[C@@H](C)C1`
0.39

Further, for `C[C@@H]1C[C@H](C)C[C@H](C)[C@@H](O)CC(=O)O[C@H]([C@@H]2CCC[C@H]2C(=O)OCCN2CCN(C)CC2)C/C=C/C=C(/C#N)[C@H](O)[C@@H](C)C1` ?
0.58

Here is the next compound: `C[C@@H]1C[C@H](C)C[C@H](C)[C@@H](O)CC(=O)O[C@H]([C@@H]2CCC[C@H]2C(=O)OCCN2CCOCC2)C/C=C/C=C(/C#N)[C@H](O)[C@@H](C)C1`
0.28

Try the compound `C[C@@H]1C[C@H](C)C[C@H](C)[C@@H](O)CC(=O)O[C@H]([C@@H]2CCC[C@H]2C(=O)OCCN2CCCCC2)C/C=C/C=C(/C#N)[C@H](O)[C@@H](C)C1`
0.28

Try this compound too: `C[C@@H]1C[C@H](C)C[C@H](C)[C@@H](O)CC(=O)O[C@H]([C@@H]2CCC[C@H]2C(=O)OCCN2CCCC2)C/C=C/C=C(/C#N)[C@H](O)[C@@H](C)C1`
0.71

---

- System: HEK-293T
- test-details: Cytotoxicity against HEK293T cells assessed as growth inhibition after 48 hrs by MTT assay
- Assay type: cell-based
- particulars: Homo sapiens
Dear colleague, classification is by IC50, with ranges listed here: c1: < 20 µg/mL; c2: ≥ 20 µg/mL and < 30 µg/mL; c3: ≥ 30 µg/mL

Hello team, could you let me know which band the following compound falls into: `C[C@@H]1C[C@H](C)C[C@H](C)[C@@H](O)CC(=O)O[C@H]([C@@H]2CCC[C@H]2C(=O)OCCN(C)C)C/C=C/C=C(/C#N)[C@H](O)[C@@H](C)C1`
c3

And then `C[C@@H]1C[C@H](C)C[C@H](C)[C@@H](O)CC(=O)O[C@H]([C@@H]2CCC[C@H]2C(=O)OCCN2CCN(CC3CC3)CC2)C/C=C/C=C(/C#N)[C@H](O)[C@@H](C)C1` , what is it?
c1

Also need `C[C@@H]1C[C@H](C)C[C@H](C)[C@@H](O)CC(=O)O[C@H]([C@@H]2CCC[C@H]2C(=O)O)C/C=C/C=C(/C#N)[C@H](O)[C@@H](C)C1` , thanks.
c1

Same lookup for `C[C@@H]1C[C@H](C)C[C@H](C)[C@@H](O)CC(=O)O[C@H]([C@@H]2CCC[C@H]2C(=O)OCCN2CCOCC2)C/C=C/C=C(/C#N)[C@H](O)[C@@H](C)C1` , please.
c2

Field entry: `C[C@@H]1C[C@H](C)C[C@H](C)[C@@H](O)CC(=O)O[C@H]([C@@H]2CCC[C@H]2C(=O)OCCN2CCN(C)CC2)C/C=C/C=C(/C#N)[C@H](O)[C@@H](C)C1`
c3

Same question for `C[C@@H]1C[C@H](C)C[C@H](C)[C@@H](O)CC(=O)O[C@H]([C@@H]2CCC[C@H]2C(=O)OCCN2CCCCC2)C/C=C/C=C(/C#N)[C@H](O)[C@@H](C)C1` please.
c2

Same question for `C[C@@H]1C[C@H](C)C[C@H](C)[C@@H](O)CC(=O)O[C@H]([C@@H]2CCC[C@H]2C(=O)OCCN2CCN(CCC3OCCO3)CC2)C/C=C/C=C(/C#N)[C@H](O)[C@@H](C)C1` please.
c3

Try this compound too: `C[C@@H]1C[C@H](C)C[C@H](C)[C@@H](O)CC(=O)O[C@H]([C@@H]2CCC[C@H]2C(=O)OCCN2CCN(CC3CCCCC3)CC2)C/C=C/C=C(/C#N)[C@H](O)[C@@H](C)C1`
c2

Another compound: `C=CCN1CCN(CCOC(=O)[C@@H]2CCC[C@H]2[C@@H]2C/C=C/C=C(/C#N)[C@H](O)[C@@H](C)C[C@H](C)C[C@H](C)C[C@H](C)[C@@H](O)CC(=O)O2)CC1`
c2

How about `C[C@@H]1C[C@H](C)C[C@H](C)[C@@H](O)CC(=O)O[C@H]([C@@H]2CCC[C@H]2C(=O)OCCN2CCCC2)C/C=C/C=C(/C#N)[C@H](O)[C@@H](C)C1` ?
c3

Request: `C[C@@H]1C[C@H](C)C[C@H](C)[C@@H](O)CC(=O)O[C@H]([C@@H]2CCC[C@H]2C(=O)OCCn2ccnc2)C/C=C/C=C(/C#N)[C@H](O)[C@@H](C)C1`
c1

---

- test-details: Selectivity index, ratio of IC50 for HEK293T cells to MIC for Aspergillus fumigatus CCTCC AF 93048
- Format: toxicity
- particulars: human, read-out: Selectivity Index
endpoint-label: selectivity ratio

Recorded selectivity ratio of `C[C@@H]1C[C@H](C)C[C@H](C)[C@@H](O)CC(=O)O[C@H]([C@@H]2CCC[C@H]2C(=O)OCCN2CCCCC2)C/C=C/C=C(/C#N)[C@H](O)[C@@H](C)C1` , please.
0.55

Also check `C[C@@H]1C[C@H](C)C[C@H](C)[C@@H](O)CC(=O)O[C@H]([C@@H]2CCC[C@H]2C(=O)O)C/C=C/C=C(/C#N)[C@H](O)[C@@H](C)C1`
< 0.14

# repeat for `C=CCN1CCN(CCOC(=O)[C@@H]2CCC[C@H]2[C@@H]2C/C=C/C=C(/C#N)[C@H](O)[C@@H](C)C[C@H](C)C[C@H](C)C[C@H](C)[C@@H](O)CC(=O)O2)CC1`
1.76

Then `C[C@@H]1C[C@H](C)C[C@H](C)[C@@H](O)CC(=O)O[C@H]([C@@H]2CCC[C@H]2C(=O)OCCN2CCN(CC3CC3)CC2)C/C=C/C=C(/C#N)[C@H](O)[C@@H](C)C1` ?
0.34

Repeat for the following compound: `C[C@@H]1C[C@H](C)C[C@H](C)[C@@H](O)CC(=O)O[C@H]([C@@H]2CCC[C@H]2C(=O)OCCN2CCOCC2)C/C=C/C=C(/C#N)[C@H](O)[C@@H](C)C1`
< 0.28

Request: `C[C@@H]1C[C@H](C)C[C@H](C)[C@@H](O)CC(=O)O[C@H]([C@@H]2CCC[C@H]2C(=O)OCCN2CCCC2)C/C=C/C=C(/C#N)[C@H](O)[C@@H](C)C1`
0.71

Would you mind doing `C[C@@H]1C[C@H](C)C[C@H](C)[C@@H](O)CC(=O)O[C@H]([C@@H]2CCC[C@H]2C(=O)OCCN2CCN(CCC3OCCO3)CC2)C/C=C/C=C(/C#N)[C@H](O)[C@@H](C)C1` as well?
> 5.61

Also need `C[C@@H]1C[C@H](C)C[C@H](C)[C@@H](O)CC(=O)O[C@H]([C@@H]2CCC[C@H]2C(=O)OCCN(C)C)C/C=C/C=C(/C#N)[C@H](O)[C@@H](C)C1` , thanks.
< 0.39

Lookup `C[C@@H]1C[C@H](C)C[C@H](C)[C@@H](O)CC(=O)O[C@H]([C@@H]2CCC[C@H]2C(=O)OCCN2CCN(CC3CCCCC3)CC2)C/C=C/C=C(/C#N)[C@H](O)[C@@H](C)C1`
0.92

Okay, and `C[C@@H]1C[C@H](C)C[C@H](C)[C@@H](O)CC(=O)O[C@H]([C@@H]2CCC[C@H]2C(=O)OCCn2ccnc2)C/C=C/C=C(/C#N)[C@H](O)[C@@H](C)C1` ?
0.72

Next: `C[C@@H]1C[C@H](C)C[C@H](C)[C@@H](O)CC(=O)O[C@H]([C@@H]2CCC[C@H]2C(=O)OCCN2CCN(C)CC2)C/C=C/C=C(/C#N)[C@H](O)[C@@H](C)C1`
1.17

---

- test-details: Selectivity index, ratio of IC50 for HEK293T cells to MIC for Candida parapsilosis ATCC 22019
- Assay type: toxicity
- particulars: human, read-out: Selectivity Index
endpoint-label: selectivity ratio

I would be grateful if you could share the reported selectivity ratio for `C[C@@H]1C[C@H](C)C[C@H](C)[C@@H](O)CC(=O)O[C@H]([C@@H]2CCC[C@H]2C(=O)OCCN2CCN(C)CC2)C/C=C/C=C(/C#N)[C@H](O)[C@@H](C)C1` .
2.34

Lookup `C[C@@H]1C[C@H](C)C[C@H](C)[C@@H](O)CC(=O)O[C@H]([C@@H]2CCC[C@H]2C(=O)OCCn2ccnc2)C/C=C/C=C(/C#N)[C@H](O)[C@@H](C)C1`
< 0.18

What do you have for `C[C@@H]1C[C@H](C)C[C@H](C)[C@@H](O)CC(=O)O[C@H]([C@@H]2CCC[C@H]2C(=O)OCCN2CCCCC2)C/C=C/C=C(/C#N)[C@H](O)[C@@H](C)C1` ?
0.28
